Task for the reader: assign each of the following molecules its reported IC50.
Test system: MOLT-4
Experiment: Cytotoxic Activity against human tumor MOLT-4 cell line
Assay type: functional, cell-based
Give the value, in units of µg/mL, as a plain number.

[in] Report measured IC50; entry is O=S(=O)(N/C(=N\O)Nc1ccc(Cl)cc1)c1cc(-c2ccsc2)no1
[out] 9

[in] Report measured IC50; entry is Cc1c(S(=O)(=O)N/C(=N\O)Nc2ccc(Cl)cc2)sc2ccc(Cl)cc12
[out] 38

[in] Report measured IC50; entry is O=S(=O)(N/C(=N\O)Nc1ccc(Cl)cc1)c1cc(C(F)(F)F)cc(C(F)(F)F)c1
[out] 44

[in] Report measured IC50; entry is O=S(=O)(N/C(=N\O)Nc1ccc(Cl)cc1)c1ccccc1
[out] 7

[in] Report measured IC50; entry is O=S(=O)(N/C(=N\O)Nc1ccc(Cl)cc1)c1cc(S(=O)(=O)c2ccccc2)cs1
[out] 22

[in] Report measured IC50; entry is O=[N+]([O-])c1ccc(Oc2c(Cl)cc(S(=O)(=O)N/C(=N\O)Nc3ccc(Cl)cc3)cc2Cl)cc1
[out] 55

[in] Report measured IC50; entry is Cc1ccc(S(=O)(=O)N/C(=N\O)Nc2ccc(Cl)cc2)cc1
[out] 6

[in] Report measured IC50; entry is O=[N+]([O-])c1ccc(Oc2c(Cl)cc(S(=O)(=O)N/C(=N\O)Nc3ccc(Cl)cc3)cc2Cl)c(Cl)c1
[out] 56

Data provenance: ChEMBL document CHEMBL1130091
